So I've got a bunch of compounds here, and I need their % AR protein degradation in LNCaP Cells values.
# test_system: AR protein (Homo sapiens, UniProt P10275, T878A)
# Construct: The percent AR protein degradation induced by these compounds at various concentrations in LNCaP cells; host or cells: LNCaP
# Sequence (P10275 whole entry T878A): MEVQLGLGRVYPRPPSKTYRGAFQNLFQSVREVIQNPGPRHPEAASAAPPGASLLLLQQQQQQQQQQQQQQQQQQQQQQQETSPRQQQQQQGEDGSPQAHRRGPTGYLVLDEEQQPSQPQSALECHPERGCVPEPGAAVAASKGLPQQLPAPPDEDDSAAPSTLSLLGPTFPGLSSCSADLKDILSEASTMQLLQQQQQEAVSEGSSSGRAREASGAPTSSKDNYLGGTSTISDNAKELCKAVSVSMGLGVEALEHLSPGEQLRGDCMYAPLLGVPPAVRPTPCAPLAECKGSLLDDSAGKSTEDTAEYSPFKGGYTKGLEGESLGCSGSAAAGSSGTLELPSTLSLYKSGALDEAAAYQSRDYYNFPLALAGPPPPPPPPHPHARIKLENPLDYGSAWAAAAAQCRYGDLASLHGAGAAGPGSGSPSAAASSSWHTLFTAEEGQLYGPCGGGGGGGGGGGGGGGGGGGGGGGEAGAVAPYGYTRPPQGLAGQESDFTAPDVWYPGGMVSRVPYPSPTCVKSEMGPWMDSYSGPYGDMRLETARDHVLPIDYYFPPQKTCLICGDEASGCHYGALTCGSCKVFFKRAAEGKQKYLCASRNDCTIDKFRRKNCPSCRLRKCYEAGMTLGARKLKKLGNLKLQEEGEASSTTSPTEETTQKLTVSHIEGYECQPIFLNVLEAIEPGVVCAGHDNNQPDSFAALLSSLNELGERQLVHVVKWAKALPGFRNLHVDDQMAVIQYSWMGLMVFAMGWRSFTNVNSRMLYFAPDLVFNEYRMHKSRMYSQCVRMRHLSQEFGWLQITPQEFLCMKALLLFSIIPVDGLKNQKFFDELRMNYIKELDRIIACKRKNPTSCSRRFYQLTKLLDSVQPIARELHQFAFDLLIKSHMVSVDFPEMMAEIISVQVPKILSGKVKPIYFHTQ
# assay_text: AR protein degradation in LNCaP cells (Western blotting)
# Assay type: cell-based
# condition_set: 0.01 μM, treatment time 6 h, average of three independent experiments

1) CC(=O)N[C@H](C(=O)N1C[C@H](O)C[C@H]1C(=O)N[C@@H](CC(=O)N1CCC(N2CCC(C#Cc3ccc(C(=O)N[C@H]4C(C)(C)[C@H](Oc5ccc(C#N)c(Cl)c5)C4(C)C)cc3)CC2)CC1)c1ccc(-c2scnc2C)cc1)C(C)(C)C [Compound 36] | 39%

Here are 4 compounds. What values of % AR protein degradation in LNCaP Cells were reported for them?
1. Cc1ncsc1-c1ccc([C@H](CC(=O)N2CCC(N3CCC(C#Cc4ccc(C(=O)NC5C(C)(C)C(Oc6ccc(C#N)c(Cl)c6)C5(C)C)cc4)CC3)CC2)NC(=O)[C@@H]2C[C@@H](O)CN2C(=O)[C@@H](NC(=O)C2(F)CC2)C(C)(C)C)cc1 (some centres unmarked) [Compound 34]
2. Cc1ncsc1-c1ccc([C@H](CC(=O)N2CCC(N3CCC(C#Cc4ccc(C(=O)N[C@H]5C(C)(C)[C@H](Oc6ccc(C#N)c(Cl)c6)C5(C)C)cc4)CC3)CC2)NC(=O)[C@@H]2C[C@@H](O)CN2C(=O)[C@@H](NC(=O)C2(C#N)CC2)C(C)(C)C)cc1 [Compound 35]
3. Cc1cc([C@H](C(=O)N2C[C@H](O)C[C@H]2C(=O)N[C@@H](CC(=O)N2CCN(c3ccc(C#Cc4ccc(C(=O)N[C@H]5C(C)(C)[C@H](Oc6ccc(C#N)c(Cl)c6)C5(C)C)cc4)cn3)CC2)c2ccc(-c3scnc3C)cc2)C(C)C)on1 [Compound 28]
4. Cc1cc([C@H](C(=O)N2C[C@H](O)C[C@H]2C(=O)N[C@@H](CC(=O)N2CCC(N3CCC(C#Cc4ccc(C(=O)N[C@H]5C(C)(C)[C@H](Oc6ccc(C#N)c(Cl)c6)C5(C)C)cc4)CC3)CC2)c2ccc(-c3scnc3C)cc2)C(C)C)on1 [Compound 32]

1: 89%; 2: 76%; 3: 22%; 4: 76%
